Parameter: MIC. Scope: all listed entries.
- Test system: Staphylococcus aureus exp. n° 54 146
- assay remarks: MIC, liquid medium dilution
- Format: cell-based
- settings: 24 h

- molecule: "CO/N=C(\\C(=O)NC1C(=O)N2C(C(=O)O)=C(C)CSC12)c1csc(N)n1 (centres unmarked)"
  reported relation: "="
  MIC (µg/mL): 40
- molecule: "CO/N=C(/C(=O)NC1C(=O)N2C(C(=O)O)=C(CSC(C)=O)CSC12)c1csc(N)n1 (centres unmarked)"
  reported relation: "="
  MIC (µg/mL): 40
- molecule: "CO/N=C(\\C(=O)NC1C(=O)N2C(C(=O)O)=C(CSc3nnnn3C)CS[C@H]12)c1csc(N)n1 (some centres unmarked)"
  reported relation: "="
  MIC (µg/mL): 2
- molecule: "CO/N=C(\\C(=O)NC1C(=O)N2C(C(=O)O)=C(CSC(C)=O)CSC12)c1csc(N)n1 (centres unmarked)"
  reported relation: "="
  MIC (µg/mL): 2
- molecule: "CO/N=C(/C(=O)NC1C(=O)N2C(C(=O)O)=C(C)CS[C@H]12)c1csc(N)n1 (some centres unmarked)"
  reported relation: ">"
  MIC (µg/mL): 100
